assay: folding stability dG unfold (combined trypsin and chymotrypsin); higher = more stable
measured_endpoint: folding stability dG unfold

>  <item_sequence>
SAGGSAGGSAGWIKEALRDMPPGKPRRIPIRNPDGNPIKIRIKVDRDPENGKYEVPIEIVSAGGSAGGSAGG [r11_343_TrROS]

>  <result>
< -1 kcal/mol

$$$$
>  <item_sequence>
SAGGSAGGSAGGTVEELAKQIQEEWQENGFKVEKVEVEDGTIKIEWKNGRQREIPFEKGSAGGSAGGSAGGS [r10_169_TrROS]

>  <result>
< -1 kcal/mol

$$$$

Please examine the following record next.
Task item: Tell me the measured folding stability dG unfold of SAGGSAGGSMPVTRPVATLPGPVTLYETTSPGERRLVRVTETPLPTPEPRTEVRLTVEVRPVGSAGGSAGGS [r12_353_JUSTAS] , please.
Reply: < -1 kcal/mol
